Test: Effect of mono- and multi-protonic acid salts on binding of amikacin to alginate
Conditions: 0.1 mL 1 mg/ml amikacin sulfate + 0.4 mL 1% Na Alginate + 0.5 mL 200 mM Na salt of the acid, pH 6.0; 10 minutes at 37° C.
Method: Various salts were tested for their ability to compete with alginate. Amikacin sulfate (0.1 mL of 1 mg/ml) was added to 0.4 mL solution of 1% Na Alginate and 0.5 mL solution of 200 mM Na salt of an Acid at pH 6.0. Samples were incubated 10 minutes at 37° C. and centrifuged in Centricon-10 for 30 minutes at 4000 rpm. Filtrate was diluted 2 fold with TDX buffer and analyzed for AMK.
Counter-ions that a name gives are not always drawn.
Measured Amikacin not bound to alginate (%) by item
I only need the number, in %, no unit after it.

Completed entries (count: 4):
CC(=O)[O-].[Na+] [Sodium acetate] ... 11.2
O=C([O-])CCCC(=O)[O-].[Na+].[Na+] [Sodium glutarate] ... 36.7
O=C([O-])/C=C\C(=O)[O-].[Na+].[Na+] [Sodium maleate] ... 39.4
O=C([O-])CCC(=O)[O-].[Na+].[Na+] [Sodium succinate] ... 40.2

Turning now to a further record.
Need Amikacin not bound to alginate (%), item O=C(O)CC(O)(CC(=O)O)C(=O)O [Sodium citrate] 72.1
